measured_target: furin, P09958;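 also: purified furin at 1:10 enzyme:substrate in 50 mM HEPES pH 7.5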
Sequence (P09958 whole entry): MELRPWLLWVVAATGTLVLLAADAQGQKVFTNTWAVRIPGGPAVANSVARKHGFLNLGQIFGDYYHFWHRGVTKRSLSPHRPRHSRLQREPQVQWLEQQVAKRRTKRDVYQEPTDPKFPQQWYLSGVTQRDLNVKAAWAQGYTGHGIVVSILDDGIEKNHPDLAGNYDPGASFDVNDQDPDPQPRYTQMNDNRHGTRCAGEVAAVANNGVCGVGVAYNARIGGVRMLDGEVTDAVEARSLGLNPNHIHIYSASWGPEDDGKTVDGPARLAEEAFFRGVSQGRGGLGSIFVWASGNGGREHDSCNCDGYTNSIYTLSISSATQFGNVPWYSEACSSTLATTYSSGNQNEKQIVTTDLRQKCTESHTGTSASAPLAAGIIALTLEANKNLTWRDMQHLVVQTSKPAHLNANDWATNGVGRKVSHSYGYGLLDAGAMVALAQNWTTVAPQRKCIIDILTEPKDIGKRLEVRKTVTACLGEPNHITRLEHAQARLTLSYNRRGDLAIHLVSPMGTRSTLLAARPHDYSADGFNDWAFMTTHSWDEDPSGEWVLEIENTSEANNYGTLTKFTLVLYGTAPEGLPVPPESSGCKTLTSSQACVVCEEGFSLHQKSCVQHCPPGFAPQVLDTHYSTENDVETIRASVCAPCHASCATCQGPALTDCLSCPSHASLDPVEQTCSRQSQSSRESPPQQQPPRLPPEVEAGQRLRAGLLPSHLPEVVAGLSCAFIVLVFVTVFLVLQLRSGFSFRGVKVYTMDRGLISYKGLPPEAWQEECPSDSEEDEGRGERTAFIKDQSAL
procedure_text: furin cleavage Z-score vs untreated control; higher = more cleavage, active = 3.5 or more, inactive = 1 or less, 8 variable residues between constant flanks
condition_description: 15 min
The list shows a part of the results. The true hit rate is not given.
Output True for furin cleavage Z-score not less than 0.2; output False otherwise.

# residue_string, label_class
data = [
    ("CARQKRQLWDAGNASASA [FS-2291]", "True"),
    ("CAAATLGFGAAGNASASA [HC790]", "True"),
    ("CARQKRAWITAGNASASA [FS-3202]", "True"),
    ("CACGSGPWITAGNASASA [HC459]", "False"),
    ("CARDSRSSERAGNASASA [FS-2654]", "False"),
]

Enquiry: Threshold query (furin cleavage Z-score >= 0.2) on CAARARNKREAGNASASA [FS-217]
Return: True
